Origin of values: PubChem BioAssay (NCI)

Entries annotated with measured TGI
- System: SF-268 CNS
- Assay Info: NCI tumour cell line growth inhibition, 48 h

Incoming: Identify TGI associated with the molecule NCC(Cc1ccccc1)P(=O)(O)O (stereo not drawn)
Outgoing: > 100 µM

Incoming: Identify TGI associated with the molecule CON(C)C(=O)C(C)NC(=O)OC(C)(C)C (stereo not drawn)
Outgoing: > 100 µM

Incoming: Identify TGI associated with the molecule O=C(c1ccccc1)c1ccc2nc3n(c2c1)C(c1c(Cl)cccc1Cl)SC3 (stereo not drawn)
Outgoing: > 100 µM

Incoming: Identify TGI associated with the molecule C=C1C(=O)O[C@@H]2[C@H]1C[C@H](I)[C@@]1(C)CC[C@H](O1)[C@](C)(I)CCCC(C)[C@@H]2O (stereo partly drawn)
Outgoing: 27.2 µM

###

Entries annotated with measured TGI
- System: SK-MEL-28 melanoma
- Assay Info: NCI tumour cell line growth inhibition, 48 h
Just the number please, in µM, no unit attached.

Molecule | TGI [µM]
C=CC(C)(O)CCC1C(=C)C(O)CC2C(C)(C)CCCC12C (centres undefined) | 36.8

Incoming: Identify TGI associated with the molecule `Nc1c(C(=O)Nc2ccccn2)sc2nc3c(cc12)CCCCCC3`
Outgoing: 19.6

###

- Test system: EKVX NSCLC
- Assay Info: NCI tumour cell line growth inhibition, 48 h
Entries annotated with measured TGI

Below, each entry is followed by its recorded TGI result.
Compound | TGI
CCOc1ccc(/C=C2/C(=O)N=C(N)N=C2N)cc1OCC | > 100 µM
COC1(c2ccccc2)NC(=S)NN=C1c1ccccc1 (stereo unspecified) | > 100 µM
O[C@]12c3ccccc3C1CCCCC2N1CCOCC1 (stereo partly specified) | > 100 µM
O=S(=O)(c1ccc2ccccc2c1)N1CCN(S(=O)(=O)c2ccc3ccccc3c2)CC1 | > 100 µM
N/C(=N\N=C/c1cc([N+](=O)[O-])cc([N+](=O)[O-])c1O)NO | > 100 µM

Incoming: Identify TGI associated with the compound `CC(=O)O[C@H]1C[C@@H](OC(C)=O)[C@@](C)(O)[C@@H]2[C@@H](OC(C)=O)[C@@]3(O)[C@H](/C=C(/CCl)[C@H]4O[C@H]4[C@@H](OC(C)=O)[C@@]12C)OC(=O)[C@@H]3C`
Outgoing: > 25 µM

###

- Test system: HOP-62 NSCLC
- Assay Info: NCI tumour cell line growth inhibition, 48 h
Parameter: TGI

Below, each entry is followed by its recorded TGI result.
Compound | TGI
COc1cc2c3c(n(CCCN4CCSCC4)c(=O)c2cc1OC)-c1cc2c(cc1C3=O)OCO2 | 73.7 µM
CCOC(=O)COc1cccc2occc(=O)c12 | > 100 µM
CCN(CC)CCS(=O)(=O)CCNc1ccnc2cc(Cl)ccc12 | > 100 µM

Incoming: Identify TGI associated with the compound `N=C(N)c1ccc(N=Nc2c(O)ccc3cc(O)ccc23)cc1`
Outgoing: > 100 µM

Incoming: Identify TGI associated with the compound `O=C1c2ccccc2-n2c1nc1ccc(Cl)cc1c2=O`
Outgoing: > 100 µM

Incoming: Identify TGI associated with the compound CON(C)C(=O)C(C)NC(=O)OC(C)(C)C (stereo not drawn)
Outgoing: > 100 µM

Incoming: Identify TGI associated with the compound `CC(=O)Oc1ccc2cc(Oc3ccccc3)c(=O)oc2c1`
Outgoing: > 100 µM

Incoming: Identify TGI associated with the compound `Cc1cc(-c2ccco2)cc(C)c1/C=C/c1cncc(-c2nn[nH]n2)c1`
Outgoing: > 25 µM

Incoming: Identify TGI associated with the compound `Clc1ccc(Cn2cc(/C=N/n3cnnc3)c3ccccc32)cc1`
Outgoing: > 100 µM

Incoming: Identify TGI associated with the compound `FC(F)(F)c1cnc(N/N=C(/c2ccccc2)c2ccccn2)c(Cl)c1`
Outgoing: 20.3 µM

Incoming: Identify TGI associated with the compound COc1cccc2c1[C@H]1OC(=O)NC1CCCCC2 (stereo partly drawn)
Outgoing: > 100 µM

Incoming: Identify TGI associated with the compound `COc1cc(OC)c(/C=C/C(=O)c2c(N)cc(OC)cc2OC)c(OC)c1`
Outgoing: > 100 µM

Incoming: Identify TGI associated with the compound CN1CC[C@]23c4c5ccc(O)c4OC2c2[nH]ncc2C[C@H]3[C@H]1C5 (stereo partly drawn)
Outgoing: > 100 µM

Incoming: Identify TGI associated with the compound `Clc1ccc(-c2nnc(-c3nsc4ccccc34)o2)cc1`
Outgoing: 33.6 µM

Incoming: Identify TGI associated with the compound CC1=NNC(=O)[C@H]2[C@H]1CCC1[C@@H]2CC[C@]2(C)[C@@H](O)CC[C@@H]12 (stereo partly drawn)
Outgoing: > 100 µM

Incoming: Identify TGI associated with the compound Cc1c(C)c2ccc(OC(C)C(=O)O)cc2oc1=O (stereo not drawn)
Outgoing: > 100 µM

Incoming: Identify TGI associated with the compound `Cc1cc(C)nc(NC(=S)Nc2ccc(Cl)cc2)c1`
Outgoing: > 100 µM

Incoming: Identify TGI associated with the compound `Cc1cc(C)c(S(=O)(=O)N(CCCN)OCCCN)c(C)c1`
Outgoing: > 100 µM

Incoming: Identify TGI associated with the compound CC1(CCCCO)C=CC(S(=O)(=O)c2ccccc2)CC1 (stereo not drawn)
Outgoing: 12.1 µM

Incoming: Identify TGI associated with the compound `Cc1nn2c(-c3nc4cc(Cl)c(Cl)cc4[nH]3)c(-c3ccc(F)cc3)nc2s1`
Outgoing: 7.26 µM
